# systemName: Macrophage migration inhibitory factor (Homo sapiens, UniProt P14174)
# Sequence (P14174 whole entry): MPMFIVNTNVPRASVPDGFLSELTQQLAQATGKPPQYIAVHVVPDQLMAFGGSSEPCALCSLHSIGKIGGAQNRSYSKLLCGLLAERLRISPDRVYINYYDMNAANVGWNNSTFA
# protocol: Binding affinity to MIF in human A549 cells assessed as inhibition constant

| molecule | Ki (nM) |
| --- | --- |
| O=C1CCC(N2C(=O)c3cccc(NCCCC(=O)Nc4ccc(N5Cc6ccc(O)cc6OC5=O)cc4)c3C2=O)C(=O)N1 (configuration not stated) | 55 |
| O=C1CCC(N2C(=O)c3cccc(NCCCCC(=O)Nc4ccc(N5Cc6ccc(O)cc6OC5=O)cc4)c3C2=O)C(=O)N1 (configuration not stated) | 86 |
